# Assayed system: T1, sIL-6R (soluble IL-6 receptor; SBH Sciences) (human, UniProt P08887 20-365)
# T1 construct: also called human IL-6R
# T1 sequence: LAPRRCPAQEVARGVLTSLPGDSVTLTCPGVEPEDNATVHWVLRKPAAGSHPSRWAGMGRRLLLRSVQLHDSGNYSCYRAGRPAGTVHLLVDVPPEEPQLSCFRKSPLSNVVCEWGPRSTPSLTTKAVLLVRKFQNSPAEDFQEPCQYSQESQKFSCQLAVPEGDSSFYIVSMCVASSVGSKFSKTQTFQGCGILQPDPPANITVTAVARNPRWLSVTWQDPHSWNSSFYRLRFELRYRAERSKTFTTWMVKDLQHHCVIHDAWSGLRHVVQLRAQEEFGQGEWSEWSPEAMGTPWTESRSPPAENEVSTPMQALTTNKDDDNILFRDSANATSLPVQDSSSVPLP
# Experimental details: SPR (BIAcore 3000), antibody on chip, sIL-6R analyte, 25 C
Recorded koff values for a group of binders are listed next.
Please state the figure in s⁻¹; there is no need to write the unit.

Binder: 240# (antibody, human IgG1, kappa, V domains shown, also called Sample # 240) VH: QVQLQESGPGLVRPSQTLSLTCTVSGYSITSDHAWSWVRQPPGRGLEWIGYISYSGMITYNPSLKSRVTMLRDTSKNQFSLRLSSVTAADTAVYYCARSLARATAMDYWGQGSLVTVSS VL: DIQMTQSPSSLSASVGDRVTITCRASQDISSYLNWYQQKPGKAPKLLIYYTSRLHSGVPSRFSGSGSGTDFTFTISSLQPEDIATYYCGQGNRLPYTFGQGTKVEIKR
koff / s⁻¹: 2.3e-05
//
Binder: 218# (antibody, human IgG1, kappa, V domains shown) VH: QVQLQESGPGLVRPSQTLSLTCTVSGYSITSDHAWSWVRQPPGRGLEWIGYISYSGMITYNPSLKSRVTMLRDTSKNQFSLRLSSVTAADTAVYYCARCLARMTAIDFWGQGSLVTVSS VL: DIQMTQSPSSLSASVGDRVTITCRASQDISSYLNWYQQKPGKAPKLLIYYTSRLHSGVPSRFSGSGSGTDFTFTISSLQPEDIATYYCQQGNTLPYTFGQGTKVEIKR
koff / s⁻¹: 6.63e-05

stdin: For 224# (antibody, human IgG1, kappa, V domains shown) VH: QVQLQESGPGLVRPSQTLSLTCTVSGYSITSDHAWSWVRQPPGRGLEWIGYISYSGMTTYNPSLKSRVTMLRDTSKNQFSLRLSSVTAADTAVYYCARCLARTTAMDYWGQGSLVTVSS VL: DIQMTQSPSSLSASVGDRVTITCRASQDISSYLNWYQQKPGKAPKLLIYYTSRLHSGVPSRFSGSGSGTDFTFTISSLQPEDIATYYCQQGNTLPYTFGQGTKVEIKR , what is its reported koff?
stdout: 7.99e-05
